Data provenance is patent US20210268056A1.

# Assay remarks: DPPH free radical scavenging assay
# Format: biochemical

[
  {
    "Smiles structure": "CC(C)C1=CC2=CC(=O)[C@H]3C(C)(C)CCC[C@]3(C)C2=C(O)C1=O",
    "DPPH free radical scavenging activity": "low"
  }
]
